system.name: T1, FV-short-QQ (FV-short with Arg709 and Arg1545 replaced with Gln) (human)
T1 construct: coagulation factor V, FV-short with both thrombin cleavage sites changed to Gln, not cleaved by thrombin; source: BHK cells, purified
experimental.protocol: fluorescence polarisation; competition: unlabeled TFPIα-BR (0–2 μM) or TFPIα (0–1 μM) titrated into 25 nM OG488-TFPIα-BR, 20 nM FV-short-QQ and 50 μM PCPS, assay buffer, 25 °C; stoichiometry of 1 assumed
test.parameters: both partners purified
pKd: −log10 of the molar value.

{"binder": "KKGFIQRISKGGLIKTKRKRKKQRVKIAYEEIFVKNM (domain or fragment, limits not printed (refs 17, 18); taken as the whole C-terminal tail after Kunitz 3 (mature 240-276); expressed in E. coli, unglycosylated) [TFPIα-BR, fragment containing the BR sequence of TFPIα]", "pKd": 8.65}
